test system: synthesis of LTB4 in human whole blood; assay: Human whole blood LTB4 production inhibition assay; type: cell-based; conditions: calcimycin stimulated, read-out: hWB LTB4 IC50
Experimental endpoint: IC50 (nM)

Recorded IC50 of CC(C)(C(N)=O)n1cc(-c2nc(C3(c4ccc(-c5cnc(N)nc5)nc4)CCC3)no2)cn1 [Example 149] , please.
430

I: Cn1cc(-c2nc(C3(c4ccc(-c5cnc(N)cn5)nc4)CCC3)no2)cn1 [Example 174]
II: Cn1cc(-c2nc(C3(c4ccc(-c5cnc(N)nc5)cn4)CCC3)no2)cn1 [Example 134]
III: Nc1ncc(-c2ccc(C3(c4noc(-c5cscn5)n4)CCC3)cn2)cn1 [Example 23]
IV: Nc1ncc(-c2ccc(C3(c4noc(-c5ccnnc5)n4)CCC3)cn2)cn1 [Example 104]
Order the entries by their reported IC50, beginning at the minimum. Form entry: ranked labels (order as requested).
I, III, II, IV

====

test system: synthesis of LTB4 in human whole blood; experiment: Human whole blood LTB4 production inhibition assay; format: cell-based; settings: calcimycin stimulated, read-out: hWB LTB4 IC50
pIC50: −log10 of the molar value.
Experimental endpoint: pIC50

Example compounds with recorded pIC50:
Param readout = pIC50; param system = synthesis of LTB4 in human whole blood; param query = Nc1ncc(-c2ccc(C3(c4noc(-c5ccc(N6CCC[C@@H]6CO)nc5)n4)CCC3)cn2)cn1 [Example 45] ; response: value
6.12

Param readout = pIC50; param system = synthesis of LTB4 in human whole blood; param query = CNc1cnc(-c2ccc(C3(c4noc(-c5cnn(C)c5)n4)CCC3)cn2)cn1 [Example 168] ; response: value
7.00

Param readout = pIC50; param system = synthesis of LTB4 in human whole blood; param query = COC(=O)[C@H]1CN(c2ccc(-c3nc(C4(c5ccc(-c6cnc(N)nc6)nc5)CCC4)no3)cn2)CCN1 [Example 40] ; response: value
7.04

Param readout = pIC50; param system = synthesis of LTB4 in human whole blood; param query = Cc1n[nH]c(C)c1-c1nc(C2(c3ccc(-c4cnc(N)nc4)nc3)CCC2)no1 [Example 103] ; response: value
6.00

Param readout = pIC50; param system = synthesis of LTB4 in human whole blood; param query = Nc1ncc(-c2ccc(C3(c4noc(-c5ccnc(O)c5)n4)CCC3)cn2)cn1 [Example 91] ; response: value
6.48

A: Nc1ncc(-c2ccc(C3(c4noc(-c5ccc(N6CCNCC6)cc5)n4)CCC3)cn2)cn1 [Example 62]
B: CS(=O)(=O)c1ccc(-c2nc(C3(c4ccc(-c5cnc(N)nc5)nc4)CCC3)no2)cn1 [Example 119]
// which entry reports the smaller pIC50, A or B ? Refer to your chosen entry by its label in the reply.
B

====

target: recombinant human FLAP protein (Homo sapiens (Human), UniProt P20292); experiment: FLAP binding assay (Scintillation Proximity Assay, displacement of [125I]L-691,831); conditions: read-out: FLAP SPA IC50
Sequence (P20292 whole entry): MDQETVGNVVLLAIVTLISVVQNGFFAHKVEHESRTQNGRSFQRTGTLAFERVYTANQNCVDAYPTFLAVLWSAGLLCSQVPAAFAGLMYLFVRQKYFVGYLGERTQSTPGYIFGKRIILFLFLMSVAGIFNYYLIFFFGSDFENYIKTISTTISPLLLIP
pIC50: −log10 of the molar value.
Experimental endpoint: pIC50

Example molecules with recorded pIC50:
Recorded pIC50 of N#Cc1cc(-c2ccc(C3(c4noc(-c5cnn(C6COC6)c5)n4)CCC3)cn2)cnc1N [Example 167] , please.
6.85

Recorded pIC50 of CCN(C)C(=O)Cn1cc(-c2nc(C3(c4ccc(-c5cnc(N)nc5)nc4)CCC3)no2)cn1 [Example 162] , please.
6.89

Recorded pIC50 of Nc1ncc(-c2ccc(C3(c4noc(-c5ccc(-n6ccnc6)nc5)n4)CCC3)cn2)cn1 [Example 31] , please.
8.72

Recorded pIC50 of Nc1ncc(-c2ccc(C3(c4noc(-c5ccc(N6CCNCC6)cc5)n4)CCC3)cn2)cn1 [Example 62] , please.
8.59

P: Cc1cc(-c2nc(C3(c4ccc(-c5cnc(N)nc5)nc4)CCC3)no2)[nH]n1 [Example 80]
Q: Nc1ncc(-c2ccc(C3(c4noc(N5CCCC5)n4)CCC3)cn2)cn1 [Example 76]
R: Nc1ncc(-c2ccc(C3(c4noc(-c5ccc(O)cc5)n4)CCC3)cn2)cn1 [Example 32]
S: Nc1ncc(-c2ccc(C3(c4noc(-c5cncs5)n4)CCC3)cn2)cn1 [Example 123]
Order the entries by their reported pIC50, beginning at the minimum. Form entry: ranked labels (order as requested).
Q, S, P, R

====

Tested on: synthesis of LTB4 in human whole blood
Assay: Human whole blood LTB4 production inhibition assay
Assay type: cell-based
Conditions: calcimycin stimulated, read-out: hWB LTB4 IC50
Description: Compounds are additionally tested in a human whole blood assay to determine their ability to inhibit the synthesis of LTB4 in a cellular system. Compounds are combined with heparinized human whole blood and incubated for 15 minutes at 37° C. […] Plasma LTB4 concentrations are then measured using an antibody-based homogenous time-resolved fluorescence method (CisBio, Bedford, Mass.).
Experimental endpoint: IC50 (nM)

a: Nc1ncc(-c2ccc(C3(c4noc(-c5cnn(CC(=O)NC6CC6)c5)n4)CCC3)cn2)cn1
b: CC(C)(O)Cn1cc(-c2nc(C3(c4ccc(-c5cnc(N)cn5)nc4)CCC3)no2)cn1
c: Nc1ncc(-c2ccc(C3(c4noc(-c5ccc(-n6ccnc6)nc5)n4)CCC3)cn2)cn1
I would appreciate it if you could sort these 3 compounds by IC50, starting from the smallest number. Form entry: ranked labels (order as requested).
b, c, a

A: COC(=O)c1ccc(-c2nc(C3(c4ccc(-c5cnc(N)nc5)nc4)CCC3)no2)cn1
B: Nc1ncc(-c2ccc(C3(c4noc(-c5cnc(N6CCNCC6)cn5)n4)CCC3)cn2)cn1
C: CN(C)C(=O)[C@@H]1CCCN1c1ccc(-c2nc(C3(c4ccc(-c5cnc(N)nc5)nc4)CCC3)no2)cn1
Order the entries by their reported IC50, beginning at the minimum. Form entry: ranked labels (order as requested).
B, A, C

I: Cc1cc(-c2nc(C3(c4ccc(-c5cnc(N)nc5)nc4)CCC3)no2)[nH]n1
II: Nc1ncc(-c2ccc(C3(c4noc(-c5cncnc5)n4)CCC3)cn2)cn1
Given I and II , report the one with the higher recorded IC50. Refer to your chosen entry by its label in the reply.
II

====

tested on: synthesis of LTB4 in human whole blood; experiment: Human whole blood LTB4 production inhibition assay; format: cell-based; settings: calcimycin stimulated, read-out: hWB LTB4 IC50
Experimental endpoint: IC50 (nM)

Example compounds with recorded IC50:
Recorded IC50 of `CS(=O)(=O)Cn1cc(-c2nc(C3(c4ccc(-c5cnc(N)nc5)nc4)CCC3)no2)cn1` , please.
390

Recorded IC50 of `CN(C(=O)Cn1cc(-c2nc(C3(c4ccc(-c5cnc(N)nc5)nc4)CCC3)no2)cn1)C(C)(C)C` , please.
260

Recorded IC50 of `Nc1ncc(-c2ccc(C3(c4noc(-c5cccnc5C(F)(F)F)n4)CCC3)cn2)cn1` , please.
1500

P: Nc1ncc(-c2ccc(C3(c4noc(-c5ccc(N6CCCC6)nc5)n4)CCC3)cn2)cn1
Q: Nc1ncc(-c2ccc(C3(c4noc(-c5cnn(C6CCS(=O)(=O)C6)c5)n4)CCC3)cn2)cn1 (stereo not shown)
Given P and Q , report the one with the higher recorded IC50. Refer to your chosen entry by its label in the reply.
P
(P: 570 nM, Q: 340 nM)

====

tested on: synthesis of LTB4 in human whole blood; assay: Human whole blood LTB4 production inhibition assay; format: cell-based; details: calcimycin stimulated, read-out: hWB LTB4 IC50
Experimental endpoint: IC50

Example compounds with recorded IC50:
Recorded IC50 of `Nc1ncc(-c2ccc(C3(c4noc(-c5nc[nH]n5)n4)CCC3)cn2)cn1` , please.
> 5 µM

Recorded IC50 of `CN(C)c1ncccc1-c1nc(C2(c3ccc(-c4cnc(N)nc4)nc3)CCC2)no1` , please.
> 5 µM

In the following, a different compound is considered.
Recorded IC50 of `Nc1ncc(-c2ccc(C3(c4noc(-c5cnco5)n4)CCC3)cn2)cn1` , please.
> 5 µM

====

target: recombinant human FLAP protein (Homo sapiens (Human), UniProt P20292); assay: FLAP binding assay (Scintillation Proximity Assay, displacement of [125I]L-691,831); conditions: read-out: FLAP SPA IC50
pIC50: −log10 of the molar value.
Experimental endpoint: pIC50

Recorded pIC50 of CNc1cnc(-c2ccc(C3(c4noc(-c5cnn(C)c5)n4)CCC3)cn2)cn1 [Example 168] , please.
7.48

Recorded pIC50 of Nc1ncc(-c2ccc(C3(c4noc(-c5ccc(OCCO)nc5)n4)CCC3)cn2)cn1 [Example 22] , please.
8.60

A: Cc1ccc(-c2nc(C3(c4ccc(-c5cnc(N)nc5)nc4)CCC3)no2)cn1 [Example 74]
B: Nc1ncc(-c2ccc(C3(c4noc(-c5ccc(N6CCC[C@H]6C(=O)O)nc5)n4)CCC3)cn2)cn1 [Example 35]
C: Nc1ncc(-c2ccc(C3(c4noc(N5CCC(O)CC5)n4)CCC3)cn2)cn1 [Example 154]
Arrange by pIC50, high to low. Form entry: ranked labels (order as requested).
A, B, C
